- TEST: qHTS Assay for inhibitors of the human cytomegalovirus (HCMV); further: on the % scale 0 is the no-effect control and ±100 the full control effect
- REPORTED_CONDITIONS: HFF cells, HCMV-luciferase reporter, 72 h; at 57.5 µM
Screen size: about 410,000 compounds; about 18,000 (4.4%) were called active. Roughly 7% stayed inconclusive and do not appear here. No stated cut-off is given here; in the data, active means activity change below about -60%; inconclusive means no clear call, values can overlap the other calls; inactive means above about -39%. For the sample, actives were picked, then their nearest neighbours and some compounds at random.
Select the matching outcome among Y for active, N for inactive

compound=COCCn1cnnc1SCC(=O)Nc1cccc(S(=O)(=O)N2CCCCC2)c1 answer_label=N
compound=Cc1cc2cc3n(c2nn1)N=C(Cl)CC3 answer_label=Y
compound=Cc1ccccc1NC(=O)CN1C(=O)C(C)(C)c2ccccc21 answer_label=N
compound="Cc1cc(NC(=O)C(C)SCC(=O)Nc2ccccc2N2CCCCC2)no1 (stereo not given)" answer_label=N
compound=Cc1cccc(NC(=O)c2ccc(COc3ccccc3[N+](=O)[O-])o2)n1 answer_label=N
compound="Cc1cc(NC(=O)C(C)SCC(=O)Nc2cccc(S(=O)(=O)N3CCCCCC3)c2)no1 (stereo not given)" answer_label=Y
compound=Cn1nnnc1SCC(=O)Nc1cccc(S(=O)(=O)N2CCCCC2)c1 answer_label=Y
compound=Cc1n[nH]c(=O)c2c(NC(=O)CSc3ccccc3F)oc(C)c12 answer_label=N

-- ask Test call, this compound: CCC(=O)Nc1cccc(NC(=O)CSc2nnc(-c3ccc(NS(C)(=O)=O)cc3)n2C)c1
-- reply N

-- ask Recorded call for CCOc1ccc(C2C(C(=O)Nc3ccc(Cl)cc3)=C(C)Nc3nc(C(F)(F)F)nn32)cc1 (stereo not given) ?
-- reply Y

---

- TEST: qHTS Assay for inhibitors of the human cytomegalovirus (HCMV); further: on the % scale 0 is the no-effect control and ±100 the full control effect
- REPORTED_CONDITIONS: HFF cells, HCMV-luciferase reporter, 72 h; at 57.5 µM; active compounds read low
The campaign covered roughly 410,000 compounds. About 18,000 (4.4%) were called active. Another 7% or so got no clear call; they are omitted. This excerpt belongs to a sample that is enriched for actives.
READOUT_KIND: activity change, negative = inhibition (%)
Express the result in % but write the number alone.

compound=CC(C)(C)OC(=O)NNc1c2ccccc2nc2ccccc12 readout_kind="activity change, negative = inhibition" measured_value=-89.2
compound=CCOC(=O)c1ccc(NC(=O)CCn2cnnn2)cc1 readout_kind="activity change, negative = inhibition" measured_value=20.5
compound=Cc1ccc(C(=O)NNC(=O)OC(C)(C)C)c(Cl)c1 readout_kind="activity change, negative = inhibition" measured_value=-10.9
compound="O=C(O)C1CSC(c2cccnc2)N1 (configuration not stated)" readout_kind="activity change, negative = inhibition" measured_value=-2.83
compound=O=C(NC1=CC(=O)c2ccccc2C1=O)c1ccccc1 readout_kind="activity change, negative = inhibition" measured_value=-66.1

activity change, negative = inhibition reported for this compound CCOc1ccccc1NC(=O)Cn1c(=O)n(-c2cccc(C)c2)c(=O)c2c1c1cc(OC)ccc1n2C : 19.1

Memo: Cc1ccc(NC(=O)c2ccc(CN3CC(=O)N4CCCCC4C3=O)cc2)c(Cl)c1 (configuration not stated) , reported activity change, negative = inhibition: 48

activity change, negative = inhibition measured on O=C(Nc1ccc(Cl)cc1C(=O)c1ccccc1)c1cc(Cl)cc(Cl)c1 = 5.04

activity change, negative = inhibition measured on CCOC(=O)c1c(NC(=O)Cc2coc3ccc(CC)cc23)sc2c1CCC2 = 1.55

get_value(item= O=C(OCC(O)C(O)COC(=O)c1ccccc1)c1ccccc1 (configuration not stated) , readout=activity change, negative = inhibition) returns 4.04

The recorded activity change, negative = inhibition for entry CCn1c(CSCc2c(Cl)cccc2Cl)n[nH]c1=S equals -67.6

// activity change, negative = inhibition lookup, compound = COc1ccccc1C(c1nnnn1C(C)(C)C)N1CCN(Cc2ccccc2)CC1 (configuration not stated) , result: -19.3

activity change, negative = inhibition reported for this compound COc1ccc(-c2nc(Cn3c(=O)cc(C)c4c(C)nn(-c5ccccc5)c43)c(C)o2)c(OC)c1 : -2.37

Memo: O=C(NCc1nnnn1-c1ccc(Cl)cc1)c1ccc([N+](=O)[O-])o1 , reported activity change, negative = inhibition: -63.2

So for O=C(Nc1ccn(Cc2ccccc2)n1)c1n[nH]c([N+](=O)[O-])c1Cl , the logged activity change, negative = inhibition turned out to be -0.724

Value of measured activity change, negative = inhibition for the entry O=C(Cc1cccs1)N(CC1CCCO1)C1(C(=O)NC2CCCCC2)CCCCC1 (configuration not stated) : -20.9

Entry S=c1[nH]nc(CSCc2ccc(Cl)cc2Cl)n1-c1ccccc1 , activity change, negative = inhibition reported as -18.3

Sure, the documented activity change, negative = inhibition for O=C(Nc1ccc(S(=O)(=O)N2CCC(c3nc4ccccc4s3)CC2)cc1)c1ccccc1F is -12.7

Cc1ccc(-n2nnnc2CNC(=O)c2ccccc2C)cc1C has a reported activity change, negative = inhibition of -15.5

CCC(C)(C)n1nnnc1C(c1ccc(OC)c(OC)c1)N1CCN(C(=O)c2ccco2)CC1 (configuration not stated) has a reported activity change, negative = inhibition of -20.3

Reported activity change, negative = inhibition of COc1ccc(CNS(=O)(=O)c2cc(Br)ccc2Br)cc1 : -5.85

activity change, negative = inhibition measured on Cc1ccc(C(=O)Nc2ccc(C(=O)O)cc2)cc1S(=O)(=O)Nc1ccccc1 = 6.44
